Readings of solubility for the listed compounds
# METHOD_NOTES: Solubility of PFOCs in olive oil lipids
# Format: physicochemical
# EXPERIMENTAL_PARAMETERS: oil or lipid, 37° C.
READOUT: solubility (mM)

1) FC1(F)C(F)(F)C(F)(F)C2(F)C(F)(F)C(F)(F)C(F)(F)C(F)(F)C2(F)C1(F)F (stereo not shown) : 26
2) FC(F)(F)C1(F)C(F)(F)C(F)(F)C(F)(N2C(F)(F)C(F)(F)C(F)(F)C(F)(F)C2(F)F)C(F)(F)C1(F)F (stereo not shown) : 7.6
3) FC(F)(F)C(F)(F)C(F)(F)N(C(F)(F)C(F)(F)C(F)(F)F)C(F)(F)C(F)(F)C(F)(F)F : 5.1
4) FC(F)(F)C(F)(F)C(F)(F)C(F)(F)N(C(F)(F)C(F)(F)C(F)(F)C(F)(F)F)C(F)(F)C(F)(F)C(F)(F)C(F)(F)F : 1.2

----------
# METHOD_NOTES: Solubility of PFOCs in membranes of erythrocytes
# Type: physicochemical
# EXPERIMENTAL_PARAMETERS: 37° C.
READOUT: Solubility in membranes

1) FC(F)(F)C(F)(F)C(F)(F)C(F)(F)N(C(F)(F)C(F)(F)C(F)(F)C(F)(F)F)C(F)(F)C(F)(F)C(F)(F)C(F)(F)F [Perfluorotributylamine] : 0.08 ml per kg of dry membranes
2) FC1(F)C(F)(F)C(F)(F)C2(F)C(F)(F)C(F)(F)C(F)(F)C(F)(F)C2(F)C1(F)F (stereo not shown) [Perfluorodecalin (PFD), perfluorodecalin] : 2.0 ml per kg of dry membranes
3) FC(F)(F)C(F)(F)C(F)(F)N(C(F)(F)C(F)(F)C(F)(F)F)C(F)(F)C(F)(F)C(F)(F)F [Perfluorotripropylamine] : 0.3 ml per kg of dry membranes
4) FC(F)(F)C1(F)C(F)(F)C(F)(F)C(F)(N2C(F)(F)C(F)(F)C(F)(F)C(F)(F)C2(F)F)C(F)(F)C1(F)F (stereo not shown) : 0.5 ml per kg of dry membranes
